Would you kindly list pKd for each of these binders?
Target: T1, EsCas13d, nuclease-dead (Eubacterium siraeum, UniProt B0MS50, R295A;H300A;R849A;H854A)
T1 sequence: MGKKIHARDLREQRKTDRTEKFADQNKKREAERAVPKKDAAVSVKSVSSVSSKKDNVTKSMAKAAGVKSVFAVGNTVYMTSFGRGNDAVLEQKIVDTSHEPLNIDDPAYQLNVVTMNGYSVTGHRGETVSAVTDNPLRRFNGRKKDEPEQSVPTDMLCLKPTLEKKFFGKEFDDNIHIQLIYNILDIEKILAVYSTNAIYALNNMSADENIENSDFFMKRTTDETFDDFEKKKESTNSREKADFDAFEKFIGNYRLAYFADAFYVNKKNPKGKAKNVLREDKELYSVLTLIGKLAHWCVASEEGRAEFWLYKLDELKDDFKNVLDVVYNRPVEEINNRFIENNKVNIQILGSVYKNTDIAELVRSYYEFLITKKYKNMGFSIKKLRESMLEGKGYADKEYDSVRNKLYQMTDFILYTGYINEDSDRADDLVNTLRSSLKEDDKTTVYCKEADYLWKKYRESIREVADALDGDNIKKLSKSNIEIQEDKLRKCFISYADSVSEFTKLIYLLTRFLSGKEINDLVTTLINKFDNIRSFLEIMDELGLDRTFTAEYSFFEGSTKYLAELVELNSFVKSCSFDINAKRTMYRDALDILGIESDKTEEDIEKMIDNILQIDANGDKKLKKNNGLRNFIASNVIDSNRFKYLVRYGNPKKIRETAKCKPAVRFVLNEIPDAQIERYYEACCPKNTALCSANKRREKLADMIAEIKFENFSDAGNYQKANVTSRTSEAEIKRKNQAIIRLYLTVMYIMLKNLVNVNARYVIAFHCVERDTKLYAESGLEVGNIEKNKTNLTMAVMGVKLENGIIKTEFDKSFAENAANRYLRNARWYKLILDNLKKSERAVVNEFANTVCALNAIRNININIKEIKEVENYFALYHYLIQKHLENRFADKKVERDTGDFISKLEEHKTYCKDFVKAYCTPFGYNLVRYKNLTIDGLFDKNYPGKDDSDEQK
Experiment: crRNA (strand 1, pre-loaded); Mg2+; 40 mM Tris-HCl pH 7.5, 150 mM NaCl, 6 mM MgCl2, 1 mM DTT, 0.1% Tween-20, 0.2 mg/ml BSA; 25 C; 10 min per concentration, then washed
Settings: tags: His6-TwinStrep-SUMO cleaved; N-terminal SNAP kept (SNAP-Surface 488); label: 3' end held by stalled T7 RNA polymerase
Remember the convention: pKd equals -log10 of concentration in molar.

Reported pKd for target 2 MT 5'PFS UAA 3'PFS CAC (mixed) RNA 1: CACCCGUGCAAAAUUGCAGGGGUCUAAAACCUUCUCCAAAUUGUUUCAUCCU RNA 2: GGGAAUGGAUCCACAUCUACGAAUUCUAAAGGAUGAAACAAUUUGGAGAAGCACAGAUCGGAAGAGCACACGU : what is it? 8.25

Another binder to look at: target 2 MT 5'PFS CUC 3'PFS AUA (mixed) RNA 1: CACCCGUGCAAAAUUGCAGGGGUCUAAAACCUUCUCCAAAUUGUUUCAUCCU RNA 2: GGGAAUGGAUCCACAUCUACGAAUUCCUCAGGAUGAAACAAUUUGGAGAAGAUAAGAUCGGAAGAGCACACGU 8.68

Another binder to look at: target 2 MT 5'PFS UGG 3'PFS AUC (mixed) RNA 1: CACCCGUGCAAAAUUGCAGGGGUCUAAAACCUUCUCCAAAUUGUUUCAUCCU RNA 2: GGGAAUGGAUCCACAUCUACGAAUUCUGGAGGAUGAAACAAUUUGGAGAAGAUCAGAUCGGAAGAGCACACGU 8.26

Another binder to look at: target 1 insA 3' of 11 (mixed) RNA 1: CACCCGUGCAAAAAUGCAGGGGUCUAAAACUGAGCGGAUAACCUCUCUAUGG RNA 2: GGGAAUGGAUCCACAUCUACGAAUUCGUACCAUAGAGAGGUAUAUCCGCUCACCGAGAUCGGAAGAGCACACGU 7.79
